- System: CCRF-CEM leukemia
- assay text: NCI tumour cell line growth inhibition, 48 h
readout label: TGI

Examples with their reported TGI follow.
molecule	result
CC1NC(=O)c2c(-c3ccccc3)nn(-c3ccccc3)c2NC1=O (stereo unspecified)	> 100 µM
COc1cccc(Nc2ncnn3ccc(CN4CC[C@@H](N)[C@H](O)C4)c23)c1	> 100 µM
CC1(C)CC(=O)c2c(nc3c(ccc4ccccc43)c2-c2ccc(NC(=O)CCCCCCCCC(=O)Nc3ccc(-c4c5c(nc6c4ccc4ccccc46)CC(C)(C)CC5=O)cc3)cc2)C1	> 100 µM

Query: Any idea what its TGI is? The molecule is `Nc1ccc(N=Nc2ccc(-c3ccc(N=Nc4c(S(=O)(=O)O)cc5cc(S(=O)(=O)O)c(N=Nc6ccc([N+](=O)[O-])cc6)c(N)c5c4O)cc3)cc2)c2cc(S(=O)(=O)O)ccc12`
Reply: > 100 µM

Query: Lookup `CCCCN(CCCC)C1(c2cc3ccccc3s2)CCCCC1`
Reply: 28.7 µM

Query: Lookup `Clc1ccc(-c2cn3c(nc4ccccc43)c(/C=C/c3cccs3)n2)cc1`
Reply: > 100 µM

Source: PubChem BioAssay (NCI)
